System: KG1 (Acute Myelogenous Leukemia)
test.protocol: Toxicity assay with or without rotenone
Assay type: cell-based
condition.set: KG1, with 25 nM rotenone, 72 hours; read-out: EC50 (nM) with Rotenone
measured.metric: EC50 (nM)
The reply should contain only the number, in nM.

Looking up CC1(C)Cc2nc3sc4c(NCCc5ccc6[nH]cnc6c5)ncnc4c3cc2CO1 , I found its EC50 recorded as 16

* * *

Test system: SDH-KO-HRAS cells (SDHB-deficient)
test.protocol: Cellular / differential toxicity assay (CellTiter-Glo, 3 days)
Assay type: cell-based, murine
condition.set: Mus musculus, 72 h, toxicity, SDH-KO cells, 3 days, CellTiter-Glo; read-out: EC50 (uM) SDH-KO-HTAS-C17
Assignment: determine reported EC50 for the given compounds.

Looking up CC1(C)Cc2nc3sc4c(NCCN5CCOCC5)ncnc4c3cc2CO1 , I found its EC50 recorded as > 10 µM

Looking up COc1nc2cc(CCNc3ncnc4c3sc3nc5c(cc34)COC(C)(C)C5)ccc2[nH]1 , I found its EC50 recorded as < 1 µM

Looking up CNC(=O)c1ccc(CCNc2ncnc3c2sc2nc4c(cc23)COC(C)(C)C4)cc1 , I found its EC50 recorded as < 1 µM

Looking up CC1(C)Cc2nc3sc4c(N5CCC(Cc6ccccc6)CC5)ncnc4c3cc2CO1 , I found its EC50 recorded as > 10 µM

Looking up Cc1nc(NCCO)c2sc3nc4c(cc3c2n1)COC(C)(C)C4 , I found its EC50 recorded as > 10 µM

Looking up CC1(C)Cc2nc3sc4c(NCCO)ncnc4c3cc2CO1 , I found its EC50 recorded as > 10 µM

Looking up COCCOCCOCCOCCOCCOCc1c2c(nc3sc4c(NCCc5ccc6[nH]cnc6c5)ncnc4c13)CC(C)(C)OC2 , I found its EC50 recorded as 1 to 3 µM

Looking up CCCCCCCCCNc1ncnc2c1sc1nc3c(cc12)COC(C)(C)C3 , I found its EC50 recorded as > 10 µM

Looking up CC1(C)Cc2nc3sc4c(NCCc5ccc(O)cc5)ncnc4c3cc2CO1 , I found its EC50 recorded as < 1 µM

Looking up CC(=O)OCC(=O)Cc1ccc(CCNc2ncnc3c2sc2nc4c(cc23)COC(C)(C)C4)cc1N , I found its EC50 recorded as < 1 µM

Looking up CC(=O)Nc1ccc(CCNc2ncnc3c2sc2nc4c(cc23)COC(C)(C)C4)cc1F , I found its EC50 recorded as 1 to 3 µM

Looking up CC1(C)Cc2nc3sc4c(N5CCCC5)ncnc4c3cc2CO1 , I found its EC50 recorded as > 10 µM

Looking up CC1(C)Cc2nc3sc4c(NCCc5ccc(NC(=O)c6ccccc6)c([N+](=O)[O-])c5)ncnc4c3cc2CO1 , I found its EC50 recorded as 1 to 3 µM

Looking up CC1(C)Cc2nc3sc4c(NCCc5ccc6[nH]cnc6c5)ncnc4c3c(COC3CCOCC3)c2CO1 , I found its EC50 recorded as < 1 µM

Looking up CC1(C)Cc2nc3sc4c(NCCc5ccc(OS(C)(=O)=O)cc5)ncnc4c3cc2CO1 , I found its EC50 recorded as > 10 µM

Looking up Cc1nc(NCC2CCCO2)c2sc3nc4c(cc3c2n1)COC(C)(C)C4 (centres unmarked) , I found its EC50 recorded as > 10 µM

Looking up CC(=O)c1nc2cc(CCNc3ncnc4c3sc3nc5c(cc34)COC(C)(C)C5)ccc2[nH]1 , I found its EC50 recorded as < 1 µM
